Assay: Toxicity liver stage against HepG2, at 10uM
Format: cell-based
Parameters: test concentration 10 uM, cell line HepG2-A16-CD81EGFP
Settings: human, HepG2-A16-CD81EGFP cells; read-out: INHIBITION
property_label: cytotoxicity at 10 µM (%)
Number in %, nothing else.

Example results:
Consider the compound `CSc1ncc(C(=O)N2C[C@@H](NC(C)=O)[C@H](c3ccc(C)cc3)C2)cn1` and give its measured cytotoxicity at 10 µM. -0.645

// cytotoxicity at 10 µM lookup, key: CCc1cnc(CCNC(=O)N2CCCC(c3ncc[nH]3)C2)s1 (centres undefined) -4.15

Next:
Param item = CCc1nnc(CN2CCOC(Cn3cccn3)C2)o1 (centres undefined) ; retrieve measured cytotoxicity at 10 µM. -8.15

// query cytotoxicity at 10 µM value for entry `Cc1n[nH]cc1CNC1CCN(c2cccc(C(F)(F)F)c2)CC1` -64.8

Can you share its cytotoxicity at 10 µM? I mean this compound: `CN1CC2(CCN(C(=O)Cc3ccccn3)CC2)OCC1=O` -3.39

Endpoint output: cytotoxicity at 10 µM of `CCOc1ccnc(N2CCN(C(=O)c3cn[nH]c3CC)CC2)n1` . Value? -6.69

What cytotoxicity at 10 µM value was documented for this compound, `Cc1nc2ccnn2c(C)c1CCC(=O)N1CCN(C2CC2)CC1` ? -7.2

Look at this compound and give its reported cytotoxicity at 10 µM. `COCCNC(=O)[C@H]1CN(c2ncccn2)C[C@H]2OCC[C@@H]12` -80.7

----------
Items are presented alongside their recorded cytotoxicity at 10 µM.
Assay: Toxicity liver stage against HepG2, at 10uM
Type: cell-based
Design: test concentration 10 uM, cell line HepG2-A16-CD81EGFP
Settings: human, HepG2-A16-CD81EGFP cells; read-out: INHIBITION
Use % as the unit, but write only the number.

Recorded cytotoxicity at 10 µM for `COc1cncc(N2CCN(Cc3cccn3C)CC2)n1` , please? 6.09

Need cytotoxicity at 10 µM, item `O=C1NC(c2cccnc2)=NC12CCN(CCCc1ccccc1)CC2` 1.68

Form field: reported cytotoxicity at 10 µM of `Cc1occc1C(=O)NCC(=O)NCCOc1ccc2c(c1)CCC2` -2.83

Quick check: cytotoxicity at 10 µM of `Cc1nsc(C(=O)NCCc2ccc(F)cc2)n1` ? -6.92

Fill blank: measured cytotoxicity at 10 µM of the compound `O=C(Cc1ccc(F)cc1)NCCNc1cc(N2CCCC2)cnn1` is ____. -3.29

What does the record list as cytotoxicity at 10 µM for `Cc1cncc(C(=O)N2C[C@@H]3CN(S(C)(=O)=O)CCO[C@@H]3C2)c1` ? -4.87

What cytotoxicity at 10 µM value was documented for this compound, Cc1cccc(CCC(=O)N2CCCC(c3cc(C(N)=O)[nH]n3)C2)c1 (configuration not stated) ? -7.1

If you can, please state the reported cytotoxicity at 10 µM value of CC(CCN(C)C)NC(=O)N1CCSC(C)(C)C1 (configuration not stated) . 5.4

***
Field request: cytotoxicity at 10 µM | item: `Cc1ccccc1NC(=O)Nc1c[nH]c(=O)[nH]c1=O` 3.54

Quick one: cytotoxicity at 10 µM for Cc1cc(C)n(CCN2CCC(N(C)Cc3nnc(C)n3C)C2)n1 (configuration not stated) ? 2.35

Which cytotoxicity at 10 µM is listed for c1ccc(-c2ncc3c(n2)C2(CCN(c4ncccn4)C2)COC3)cc1 (configuration not stated) ? 1.36

Please give the measured cytotoxicity at 10 µM for this compound: CS(=O)(=O)c1cn[nH]c1C1CCCCN1C(=O)c1cncs1 (configuration not stated) -19.1
